system: K. pneumoniae CDC0010 (MDR); assay: MIC against resistant strains, Tables 5a-5d; format: cell-based; details: Klebsiella pneumoniae, n = 3
Known log10 of MIC of a selection of molecules
measurement-label: log10 of MIC (log10 of the value in µg/mL)

- CCC[N+](C)(C)CCCCOc1cc(/C=C/c2ccc(/C=C/c3cc(OCCCC[N+](C)(C)CCC)cc(OCCCC[N+](C)(C)CCC)c3)cc2)cc(OCCCC[N+](C)(C)CCC)c1: 1.51
- CC[N+](C)(C)CCCCOc1cc(/C=C/c2ccc(/C=C/c3cc(OCCCC[N+](C)(C)CC)cc(OCCCC[N+](C)(C)CC)c3)cc2)cc(OCCCC[N+](C)(C)CC)c1.[I-].[I-].[I-].[I-]: 1.51
- CCCCCC[N+](C)(C)CCCCCCOc1cc(/C=C/c2cc(OCCCCCC[N+](C)(C)CCCCCC)cc(OCCCCCC[N+](C)(C)CCCCCC)c2)cc(OCCCCCC[N+](C)(C)CCCCCC)c1: 0.60
- CCCC[N+](C)(C)CCOc1cc(/C=C/c2ccc(/C=C/c3cc(OCC[N+](C)(C)CCCC)cc(OCC[N+](C)(C)CCCC)c3)cc2)cc(OCC[N+](C)(C)CCCC)c1.[I-].[I-].[I-].[I-]: 1.20
- CCCCCC[N+](C)(C)CCCOc1cc(/C=C/c2ccc(/C=C/c3cc(OCCC[N+](C)(C)CCCCCC)cc(OCCC[N+](C)(C)CCCCCC)c3)cc2)cc(OCCC[N+](C)(C)CCCCCC)c1: 0.30
- CCCCCC[N+](C)(C)CCCCOc1cc(/C=C/c2ccc(/C=C/c3cc(OCCCC[N+](C)(C)CCCCCC)cc(OCCCC[N+](C)(C)CCCCCC)c3)cc2)cc(OCCCC[N+](C)(C)CCCCCC)c1.[I-].[I-].[I-].[I-]: 0.60
- C[N+](C)(C)CCCCOc1cc(/C=C/c2ccc(/C=C/c3cc(OCCCC[N+](C)(C)C)cc(OCCCC[N+](C)(C)C)c3)cc2)cc(OCCCC[N+](C)(C)C)c1.[I-].[I-].[I-].[I-]: 1.81

* * *

test system: K. pneumoniae ATCC BAA-2473 (MDR); assay: MIC against resistant strains, Tables 5a-5d; assay type: cell-based; conditions: Klebsiella pneumoniae, ATCCBAA2473, n = 3
Listed below: MIC values for each entry.
measurement-label: MIC (µg/mL)

* CCC[N+](C)(C)CCCCOc1cc(/C=C/c2ccc(/C=C/c3cc(OCCCC[N+](C)(C)CCC)cc(OCCCC[N+](C)(C)CCC)c3)cc2)cc(OCCCC[N+](C)(C)CCC)c1 | 8
* CCCC[N+](C)(C)CCOc1cc(/C=C/c2ccc(/C=C/c3cc(OCC[N+](C)(C)CCCC)cc(OCC[N+](C)(C)CCCC)c3)cc2)cc(OCC[N+](C)(C)CCCC)c1.[I-].[I-].[I-].[I-] | 4
* CCCCCC[N+](C)(C)CCCOc1cc(/C=C/c2ccc(/C=C/c3cc(OCCC[N+](C)(C)CCCCCC)cc(OCCC[N+](C)(C)CCCCCC)c3)cc2)cc(OCCC[N+](C)(C)CCCCCC)c1 | 2
* C[N+](C)(C)CCCCOc1cc(/C=C/c2ccc(/C=C/c3cc(OCCCC[N+](C)(C)C)cc(OCCCC[N+](C)(C)C)c3)cc2)cc(OCCCC[N+](C)(C)C)c1.[I-].[I-].[I-].[I-] | 32
* CC[N+](C)(C)CCCCOc1cc(/C=C/c2ccc(/C=C/c3cc(OCCCC[N+](C)(C)CC)cc(OCCCC[N+](C)(C)CC)c3)cc2)cc(OCCCC[N+](C)(C)CC)c1.[I-].[I-].[I-].[I-] | 16
* CCCCCC[N+](C)(C)CCCCOc1cc(/C=C/c2ccc(/C=C/c3cc(OCCCC[N+](C)(C)CCCCCC)cc(OCCCC[N+](C)(C)CCCCCC)c3)cc2)cc(OCCCC[N+](C)(C)CCCCCC)c1.[I-].[I-].[I-].[I-] | 4
* CCCCCC[N+](C)(C)CCCCCCOc1cc(/C=C/c2cc(OCCCCCC[N+](C)(C)CCCCCC)cc(OCCCCCC[N+](C)(C)CCCCCC)c2)cc(OCCCCCC[N+](C)(C)CCCCCC)c1 | 2

* * *

tested on: primary human hepatocytes; experiment: Cytotoxicity tested by Eurofins Pharma Discovery Services; type: cell-based; conditions: Hepatocyte, data provided by Eurofins, read-out: IC50
measurement-label: IC50 (µg/mL)

- CCCCCC[N+](C)(C)CCCCOc1cc(/C=C/c2ccc(/C=C/c3cc(OCCCC[N+](C)(C)CCCCCC)cc(OCCCC[N+](C)(C)CCCCCC)c3)cc2)cc(OCCCC[N+](C)(C)CCCCCC)c1.[I-].[I-].[I-].[I-]: 31.8
- CCCCCC[N+](C)(C)CCCCCCOc1cc(/C=C/c2cc(OCCCCCC[N+](C)(C)CCCCCC)cc(OCCCCCC[N+](C)(C)CCCCCC)c2)cc(OCCCCCC[N+](C)(C)CCCCCC)c1: 13.2
- C[N+](C)(C)CCCCCCOc1cc(/C=C/c2ccc(/C=C/c3ccc(/C=C/c4cc(OCCCCCC[N+](C)(C)C)cc(OCCCCCC[N+](C)(C)C)c4)cc3)cc2)cc(OCCCCCC[N+](C)(C)C)c1: 102

* * *

experiment: Cytotoxicity, MTT assay; type: cell-based; conditions: human; Hep G2; at the concentration given as IC50 bound; read-out: cell viability at the highest or lowest test concentration
measurement-label: viability at 24 h (%)

• C[N+](C)(C)CCCCCCOc1cc(/C=C/c2cc(OCCCCCC[N+](C)(C)C)cc(OCCCCCC[N+](C)(C)C)c2)cc(OCCCCCC[N+](C)(C)C)c1 = 68

* * *

Experiment: Cytotoxicity, MTT assay
Type: cell-based
Settings: human, Hep G2 (ATCC HB-8065) cells; Hep G2; at the concentration given as IC50 bound; read-out: cell viability at the highest or lowest test concentration
Method: Before removing the frozen cell stocks from liquid nitrogen, culture medium was pre-warmed to 37° C. […] • 1. […] The number of cells in the cell suspension was determined using an auto-cell counter: 10 μL of the cell suspension was mixed with 10 μL 1× trypan blue (filtered with 0.2 μm PES filter) and the mixture was loaded onto a cell counting slide. […] Data processing: The average of background Abg was calculated from the blank column. […]
measurement-label: viability at 24 h

- CCC[N+](C)(C)CCCCOc1cc(/C=C/c2ccc(/C=C/c3cc(OCCCC[N+](C)(C)CCC)cc(OCCCC[N+](C)(C)CCC)c3)cc2)cc(OCCCC[N+](C)(C)CCC)c1 [Formula Q]: 91%
- CO/N=C(\C(=O)N[C@@H]1C(=O)N2C(C(=O)[O-])=C(C[n+]3cccc4c3CCC4)CS[C@H]12)c1csc(N)n1 [Cefpirome, reference compound]: 101%
- CCCCC[N+](C)(C)CCCCOc1cc(/C=C/c2ccc(/C=C/c3cc(OCCCC[N+](C)(C)CCCCC)cc(OCCCC[N+](C)(C)CCCCC)c3)cc2)cc(OCCCC[N+](C)(C)CCCCC)c1 [Formula S]: 52%
- C[C@@H](O)[C@H]1C(=O)N2C(C(=O)O)=C(S[C@@H]3CN[C@H](C(=O)N(C)C)C3)[C@H](C)[C@H]12 [Meropenem, reference compound]: 96%
- C[N+]12CC[N+](CCCOc3cc(/C=C/c4ccc(/C=C/c5cc(OCCC[N+]67CC[N+](C)(CC6)CC7)cc(OCCC[N+]67CC[N+](C)(CC6)CC7)c5)cc4)cc(OCCC[N+]45CC[N+](C)(CC4)CC5)c3)(CC1)CC2 [Formula DD]: 85%
- C[N+](C)(C)CCCCCCOc1cc(/C=C/c2ccc(/C=C/c3ccc(/C=C/c4cc(OCCCCCC[N+](C)(C)C)cc(OCCCCCC[N+](C)(C)C)c4)cc3)cc2)cc(OCCCCCC[N+](C)(C)C)c1 [Formula TT]: 70%
- C[N+](C)(C)CCCCCCN(CCCCCC[N+](C)(C)C)c1ccc(/C=C/c2ccc(/C=C/c3ccc(/C=C/c4ccc(N(CCCCCC[N+](C)(C)C)CCCCCC[N+](C)(C)C)cc4)cc3)cc2)cc1 [Formula VV]: 64%
- CC[N+](C)(C)CCCOc1cc(/C=C/c2ccc(/C=C/c3cc(OCCC[N+](C)(C)CC)cc(OCCC[N+](C)(C)CC)c3)cc2)cc(OCCC[N+](C)(C)CC)c1 [Formula Y]: 61%
- C[N+](C)(C)CCCOc1cc(/C=C/c2ccc(/C=C/c3cc(OCCC[N+](C)(C)C)cc(OCCC[N+](C)(C)C)c3)cc2)cc(OCCC[N+](C)(C)C)c1 [Formula X]: 73%
- C[N+](C)(C)CCCCOc1cc(/C=C/c2ccc(/C=C/c3cc(OCCCC[N+](C)(C)C)cc(OCCCC[N+](C)(C)C)c3)cc2)cc(OCCCC[N+](C)(C)C)c1.[I-].[I-].[I-].[I-] [Formula F]: 100%
- C[N+](C)(CCCOc1cc(/C=C/c2ccc(/C=C/c3cc(OCCC[N+](C)(C)CC(O)CO)cc(OCCC[N+](C)(C)CC(O)CO)c3)cc2)cc(OCCC[N+](C)(C)CC(O)CO)c1)CC(O)CO (centres unmarked) [Formula OO]: 61%
